System: B16F10 Melanoma
Assay: Cytotoxicity assay (Cell Titer GLO, 72 hours), B16F10
Format: cell-based
Details: Mus musculus, B16-F10, B16F10 Melanoma cells, cell viability by Cell Titer GLO, read-out: GC50 (the source's name)
pIC50: −log10 of the molar value.
measuredEndpoint: pIC50

Look over these answered cases.
INSERT INTO results (molecule, measuredendpoint, resultvalue) VALUES
  ('C=CC(=O)NCCSc1ccc(O)c(O)c1 [Compound 10]', 'pIC50', '< 4.30'),
  ('C=CC(=O)NCCSc1cccc(O)c1O [Compound 14]', 'pIC50', 5.33);

Request the reported pIC50 associated with C=CC(=O)NCCSc1cc(O)ccc1O [Compound 12]
< 4.30

Source: patent US20190062272A1
